# Substrate: CCO
# TEST NAME: purified protein
# CONDITION INFO: 100 mM glycine-NaOH pH 10, 2.4 mM NAD+, 30 °C, oxidation
PROPERTY MEASURED: kcat (s⁻¹)
Use s⁻¹ as the unit, but write only the number.

Sample answers from the record:
PROTEIN | UNIT STRING | kcat
EtgB (Paracoccus denitrificans PD1222; H47N/T44S) (protein, pET16b, His-tagged, E. coli BL21 AI, Ni-NTA purified; homotetramer; zinc-dependent medium-chain alcohol dehydrogenase) MAKTMKAAVVREFGKPLTIDEVPVPEPGPGMIQVRIQASGVCHSDLNAAEGDWPVKPNPPFIPGHEGVGFVSAVGAGVKHVKEGDRVGVPWLYTACGHCRHCLGGWETLCESQLNTGYSVNGGFADYVVADPNYVGHLPKNVDFLDIAPVLCAGVTVYKGLKVTDTKPGDWVVISGIGGLGHMAVQYAKAMGMNVAAVDIDDEKLALARKLGATVTVNAATEPDPAAAIRKQTDGGAQGVLVTAVGRKAFEQAIGMVARGGTVALNGLPPGDFPLDIFGMVLNGITVRGSIVGTRLDLQESLDFAGDGKVKATVHKAKLEDINNIFGQMHKGQIEGRMVLDMAG | s⁻¹ | 10.7
EtgB (Paracoccus denitrificans PD1222; T44S) (protein, pET16b, His-tagged, E. coli BL21 AI, Ni-NTA purified; homotetramer; zinc-dependent medium-chain alcohol dehydrogenase) MAKTMKAAVVREFGKPLTIDEVPVPEPGPGMIQVRIQASGVCHSDLHAAEGDWPVKPNPPFIPGHEGVGFVSAVGAGVKHVKEGDRVGVPWLYTACGHCRHCLGGWETLCESQLNTGYSVNGGFADYVVADPNYVGHLPKNVDFLDIAPVLCAGVTVYKGLKVTDTKPGDWVVISGIGGLGHMAVQYAKAMGMNVAAVDIDDEKLALARKLGATVTVNAATEPDPAAAIRKQTDGGAQGVLVTAVGRKAFEQAIGMVARGGTVALNGLPPGDFPLDIFGMVLNGITVRGSIVGTRLDLQESLDFAGDGKVKATVHKAKLEDINNIFGQMHKGQIEGRMVLDMAG | s⁻¹ | 3.2

Could you share which kcat value was measured for EtgB (Paracoccus denitrificans PD1222; H47N) (protein, pET16b, His-tagged, E. coli BL21 AI, Ni-NTA purified; homotetramer; zinc-dependent medium-chain alcohol dehydrogenase) MAKTMKAAVVREFGKPLTIDEVPVPEPGPGMIQVRIQASGVCHTDLNAAEGDWPVKPNPPFIPGHEGVGFVSAVGAGVKHVKEGDRVGVPWLYTACGHCRHCLGGWETLCESQLNTGYSVNGGFADYVVADPNYVGHLPKNVDFLDIAPVLCAGVTVYKGLKVTDTKPGDWVVISGIGGLGHMAVQYAKAMGMNVAAVDIDDEKLALARKLGATVTVNAATEPDPAAAIRKQTDGGAQGVLVTAVGRKAFEQAIGMVARGGTVALNGLPPGDFPLDIFGMVLNGITVRGSIVGTRLDLQESLDFAGDGKVKATVHKAKLEDINNIFGQMHKGQIEGRMVLDMAG ? 25.2

GET /values?readout=kcat&item= EtgB, NAD-dependent alcohol dehydrogenase (Pden_2367) (enzyme, Paracoccus denitrificans DSM 413, The enzyme holds zinc ions; also called EtgB WT; alcohol dehydrogenase EtgB; source: E. coli BL21 AI, purified (Ni-NTA, desalting, size exclusion on Superdex 200 Increase)) MAKTMKAAVVREFGKPLTIDEVPVPEPGPGMIQVRIQASGVCHTDLHAAEGDWPVKPNPPFIPGHEGVGFVSAVGAGVKHVKEGDRVGVPWLYTACGHCRHCLGGWETLCESQLNTGYSVNGGFADYVVADPNYVGHLPKNVDFLDIAPVLCAGVTVYKGLKVTDTKPGDWVVISGIGGLGHMAVQYAKAMGMNVAAVDIDDEKLALARKLGATVTVNAATEPDPAAAIRKQTDGGAQGVLVTAVGRKAFEQAIGMVARGGTVALNGLPPGDFPLDIFGMVLNGITVRGSIVGTRLDLQESLDFAGDGKVKATVHKAKLEDINNIFGQMHKGQIEGRMVLDMAG 23.5
